- targetUnderTest: ACA-6501 aPL antibody
- protocolDetails: competitive ELISA I50; antibody not given, ACA-6501 serum on CL/β2-GPI assumed (Ex. 4B)
Square brackets hold non-standard residues; d marks the D form. Ends that are not written are not given here. Sar = CNCC(=O)O
observable: IC50 (µg/mL)
Number in µg/mL, nothing else.

For CL[Sar]VLGKLC (not fully specified (bridges); cysteine pairing not given here) [3G3 N-Me amino acids 3: CL-nG-VLGKLC] the binder record lists IC50 as 70

For CLGVLGK[dL]C (not fully specified (bridges); cysteine pairing not given here) [3G3 D amino acids 6: CLGVLGK-dL-C] the binder record lists IC50 as 140

For CLG[dV][dL]GKLC (not fully specified (bridges); cysteine pairing not given here) [3G3 D amino acids 10: CLG-dV-dL-GKLC] the binder record lists IC50 as 50
